STUDY_SYSTEM: human 5-HT4(a) (Homo sapiens)
Construct: host or cells: GeneBlAzer HTR4-CRE-bla CHO-K1 cells
Sequence (Q13639 1-387 isoform Q13639-2): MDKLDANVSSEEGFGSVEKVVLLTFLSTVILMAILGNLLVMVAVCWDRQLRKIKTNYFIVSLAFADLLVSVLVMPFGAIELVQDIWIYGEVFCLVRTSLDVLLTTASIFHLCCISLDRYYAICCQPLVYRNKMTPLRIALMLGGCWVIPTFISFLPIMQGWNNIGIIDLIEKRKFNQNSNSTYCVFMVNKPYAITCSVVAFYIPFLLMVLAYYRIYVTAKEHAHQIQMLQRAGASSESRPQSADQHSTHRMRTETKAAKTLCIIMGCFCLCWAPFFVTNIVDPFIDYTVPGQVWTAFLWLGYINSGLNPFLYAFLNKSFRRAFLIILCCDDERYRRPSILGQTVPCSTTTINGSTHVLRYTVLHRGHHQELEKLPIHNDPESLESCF
EXPERIMENTAL_DETAILS: Evaluation of agonistic activity in CHO-K1 cells expressing human 5-HT4(a) (GeneBlAzer HTR4-CRE-bla CHO-K1, beta-lactamase reporter)
Type: cell-based
TEST_CONDITIONS: CHO-K1 cells stably expressing human 5-HT4(a)
ATTRIBUTE_MEASURED: EC50 (pM)

# annotated cases, reported EC50 shown
CCCc1cc(N2CC[C@H](NCc3ccccc3)C2)nc(Nc2cccc(C#N)c2)n1 :: 48
CCCCc1cc(N2CC[C@H](NC(C)=O)C2)nc(Nc2ccc(C)c(C#N)c2)n1 [Example 228] :: 14

A. CCCCc1cc(N2CC[C@H](NC(C)=O)C2)nc(Nc2ccc(N)c(C#N)c2)n1
B. CCCc1cc(N2CC[C@H](NC(=O)Cc3ccc(N)cc3)C2)nc(Nc2cccc(C#N)c2)n1
C. CCCc1cc(N2CC[C@H](NC3CCCCC3)C2)nc(Nc2cccc(C#N)c2)n1
D. CCCc1cc(N2CC[C@H](NC3CCC3)C2)nc(Nc2ccc(C)c(C#N)c2)n1
Q. Task field, ranking: reported EC50, descending order. Enter labels, ranked according to the request.
A. B, C, A, D

I. CCCCc1cc(N2CC[C@H](NC(C)=O)C2)nc(Nc2cc(N)cc(C#N)c2)n1
II. CCCCc1cc(N2CC[C@H](NC(C)=O)C2)nc(Nc2ccc(F)c(C(F)(F)F)c2)n1
Q. For the pair I and II , which member has the lower EC50 number? Lab note: record the label of whichever item you select.
A. I

1. CCCc1cc(N2CCC[C@H]2CO)nc(Nc2ccc(Cl)c(N)c2)n1
2. CCCc1cc(N2CC[C@H](NC(=O)Cc3ccncc3)C2)nc(Nc2cccc(C#N)c2)n1
Q. Just tell me: smaller EC50 value, 1 or 2 ? Answer format: the label of the selected item.
A. 1
(1: 73 pM, 2: 280 pM)

* * *

STUDY_SYSTEM: human 5-HT4(a) (Homo sapiens)
EXPERIMENTAL_DETAILS: Evaluation of agonistic activity in CHO-K1 cells expressing human 5-HT4(a) (GeneBlAzer HTR4-CRE-bla CHO-K1, beta-lactamase reporter)
TEST_CONDITIONS: CHO-K1 cells stably expressing human 5-HT4(a)
ATTRIBUTE_MEASURED: EC50 (nM)

1. CCCc1cc(N2CC[C@H](NCc3ccc(F)cc3)C2)nc(Nc2cccc(C#N)c2)n1 [Example 98]
2. CCCc1cc(N2CCC[C@H]2CO)nc(Nc2ccc(N)c([N+](=O)[O-])c2)n1 [Example 212]
3. CCCc1cc(N2CC[C@H](NCC)C2)nc(Nc2ccc(F)cc2)n1 [Example 18]
4. CCCc1cc(N2CCC[C@H]2C)nc(Nc2ccc(N)c([N+](=O)[O-])c2)n1 [Example 328]
5. CCCc1cc(N2CCC[C@H]2CO)nc(Nc2ccc(F)c([N+](=O)[O-])c2)n1 [Example 208]
Q. Ascending sort, EC50. Labels, ranked as asked.
A. 2, 4, 5, 1, 3
(2: 0.0089 nM, 4: 0.017 nM, 5: 0.06 nM, 1: 0.094 nM, 3: 0.14 nM)

A. CCCc1cc(N2CCC(NC(C)=O)C2)nc(Nc2cc(Cl)ccc2C)n1 (centres unmarked) [Example 303]
B. CCCCC(C)N[C@H]1CCN(c2cc(CCC)nc(Nc3cccc(C#N)c3)n2)C1 (some centres unmarked) [Example 133]
Q. Which entry shows the lesser value of EC50 here, A or B ? Write down the label of the entry you select.
A. B
